Origin of values: patent US20150104459A1

Known Trimeric HA Binding RLU of a selection of binders
Target: recombinant soluble homotrimeric HA of A/Indonesia/5/05 (H5N1) (Influenza A virus A/Indonesia/5/2005 (H5N1))
Test: HA microarray, BCC supernatant
Conditions: remark: other sources report otherwise

QUERY: Quickly give me recorded Trimeric HA Binding RLU for TCN-555 (5246_L16) (antibody, V domains shown) VH: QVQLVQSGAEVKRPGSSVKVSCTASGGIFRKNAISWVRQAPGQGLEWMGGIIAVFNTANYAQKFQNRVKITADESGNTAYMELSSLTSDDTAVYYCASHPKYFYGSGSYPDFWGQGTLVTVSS VL: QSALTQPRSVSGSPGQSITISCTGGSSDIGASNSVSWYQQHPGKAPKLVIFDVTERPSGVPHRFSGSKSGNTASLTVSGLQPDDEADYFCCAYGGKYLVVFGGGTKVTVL
RESULT: 34500 RLU
